# System under test: T1, GST-PTPL1 PDZ domain 4 (Homo sapiens (Human)), Q12923
# T1 chain: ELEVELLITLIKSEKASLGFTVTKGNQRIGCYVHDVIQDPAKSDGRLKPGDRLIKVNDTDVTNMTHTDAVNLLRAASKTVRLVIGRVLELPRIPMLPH
# Run description: G' assay; also: key of the grades not given here
This section presents binders with their documented Classification values.
Number in A450 class, nothing else.

| Binder | Property label | Unit string | Reported value |
| --- | --- | --- | --- |
| LLNVLQRQELGDGLDDEIAV (modifications not checked) [CAPON (carboxyl-terminal PDZ ligand of neuronal nitric oxide synthase) mRNA] | Classification | A450 class | 1 |

Item under review: GPVPGEPAKPKTSAHHATFV (modifications not checked) [RGS12 (regulator of G-protein signaling 12] . Reported Classification? 1

Item under review: PRLKRMQQFEDLEDEIPQFV (modifications not checked) [RhoGAP 1 (PTPL1-associated)] . Reported Classification? 2

Item under review: PVYIVQEMPPQSPANIYYKV (modifications not checked) [ephrin B1] . Reported Classification? 2
